- tested.system: T1, VV B5 monomer protein (Wyeth Vaccinia strain B5 with C-terminal AVI tag and HIS6 tag) (Vaccinia virus, Wyeth strain, UniProt O57254 18-279)
- T1 construct: also called B5 protein; VV B5 protein
- protocol: ELISA, B5 monomer coated
Please respond with reported EC50 for every item in the list.
One number for each entry, in nM.

A048-H4L4 (antibody, V domains shown) VH: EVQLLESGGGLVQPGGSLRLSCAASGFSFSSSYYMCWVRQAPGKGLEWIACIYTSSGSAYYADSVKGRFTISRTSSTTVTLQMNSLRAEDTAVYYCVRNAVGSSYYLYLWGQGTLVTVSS VL: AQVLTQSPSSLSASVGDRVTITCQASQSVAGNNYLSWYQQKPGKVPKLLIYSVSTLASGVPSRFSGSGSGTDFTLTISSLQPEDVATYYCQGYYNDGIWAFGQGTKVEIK
0.114

Turning now to a further record.
May I ask what EC50 has been recorded for A048-H4L2 (antibody, V domains shown) VH: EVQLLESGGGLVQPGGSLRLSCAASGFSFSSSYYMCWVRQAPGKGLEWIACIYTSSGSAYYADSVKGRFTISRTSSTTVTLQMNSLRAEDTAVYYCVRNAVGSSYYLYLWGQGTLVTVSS VL: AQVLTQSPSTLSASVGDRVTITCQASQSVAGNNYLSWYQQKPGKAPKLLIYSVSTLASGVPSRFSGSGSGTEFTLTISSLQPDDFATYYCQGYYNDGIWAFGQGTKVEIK ?
0.107
